# procedureDetails: NCI Yeast Anticancer Drug Screen. Data for the rad50 strain (AID 155);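 note: 0% = growth of vehicle-only cultures of the same strain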
# conditionDetails: S. cerevisiae rad50 strain growth inhibition; at 50.0 µM; hits give high values
Compounds without any hit were thinned out: in the full panel of roughly 79,000, 15% have a hit.
parameter: growth inhibition (%)
Numbers only here, please. The scale is %.

Completed entries (count: 4):
[
  {
    "compound": "O=C(NC(=Nc1ccccc1)SCSC(=Nc1ccccc1)NC(=O)c1ccco1)c1ccco1",
    "scaleUnit": "%",
    "growth inhibition": -5.85
  },
  {
    "compound": "COc1ccc(C(=O)c2ccccc2)c(O)c1OC",
    "scaleUnit": "%",
    "growth inhibition": -12.9
  },
  {
    "compound": "CCC(C)(C)c1ccc(O)c(CNCCO)c1",
    "scaleUnit": "%",
    "growth inhibition": 26.8
  },
  {
    "compound": "O=C1N(Cc2ccccc2)[C@H]2CS(=O)(=O)C[C@@H]2N1Cc1ccccc1",
    "scaleUnit": "%",
    "growth inhibition": 0.9
  }
]

Which growth inhibition value belongs to `COC(=O)c1ccccc1CC1Cc2cc3c(cc2C1)CCC3` ?
20.5

Which growth inhibition value belongs to `c1ccc(-c2cc(-c3ccncc3)c(-c3ccccc3)nn2)cc1` ?
7.85

Which growth inhibition value belongs to O=C(O)CC(NC(=O)OCc1ccccc1)C(=O)OCc1ccccc1 (stereo unspecified) ?
0.55

###

Listing: growth inhibition of selected compounds
# procedureDetails: NCI Yeast Anticancer Drug Screen. Data for the mec2-1 strain (AID 157)
# conditionDetails: S. cerevisiae mec2-1 strain, at 50.0 µM, hits give high values
The panel holds about 79,000 compounds, 15% with a hit somewhere; the sample as a whole holds those more often.
Numbers only here, please. The scale is %.

[
  {
    "compound": "CC1CC(OC(=O)c2ccccc2)CCC1=O (stereo not drawn)",
    "quantitativeResult": -2.85
  }
]

Which growth inhibition value belongs to O=C1CSC(c2ccccc2)N1O (stereo not drawn) ?
-5

Which growth inhibition value belongs to CSC1(C)CC2C(CC1N1CCCCC1)C2(C)C (stereo not drawn) ?
-16.4

Which growth inhibition value belongs to C=CCOCC(CCl)OC(=O)C(C)C (stereo not drawn) ?
-11.8

Which growth inhibition value belongs to `O=C1CCNC(=O)N1` ?
-7.35

Which growth inhibition value belongs to N#CC1CCCC(CBr)C1 (stereo not drawn) ?
-43

Which growth inhibition value belongs to C[C@]12CCC3c4ccc(OC(=O)c5ccccc5)cc4CC[C@H]3C1CC[C@@H]2OC(=O)C12OC1CCC2=O (stereo partly drawn) ?
-35.5

Which growth inhibition value belongs to `CN(C)c1nc(Oc2nc(N(C)C)nc(N(C)C)n2)nc(N(C)C)n1` ?
-26.6

###

Listing: growth inhibition of selected compounds
# procedureDetails: NCI Yeast Anticancer Drug Screen. Data for the mec2-1 strain (AID 157)
# conditionDetails: S. cerevisiae mec2-1 strain, at 50.0 µM, hits give high values
This is part of a sample that, as a whole, favours compounds with a hit. Of some 79,000 tested, about 15% had one in any assay. Calls of active or inactive are those of the source. Cut-off read from the data, not from the text of the source: active = growth inhibition above about 70%; inactive = the rest.

[
  {
    "smilesNotation": "Cn1c([N+](=O)[O-])cnc1COc1ccc(NC(=O)CN2CCOCC2)cc1",
    "growth inhibition": "1.05% (inactive)"
  },
  {
    "smilesNotation": "CC(=O)Nc1ccc(/C=N/NC(N)=S)cc1",
    "growth inhibition": "-7.35% (inactive)"
  },
  {
    "smilesNotation": "CCOC(=O)C1(C(=O)OCC)OC(=O)NC2=C1CCCC2",
    "growth inhibition": "-29.1% (inactive)"
  }
]

Please examine the following record next.
Which growth inhibition value belongs to `O=[N+]([O-])c1ccc(Sc2cccs2)c([N+](=O)[O-])c1` ?
28.9% (inactive)

###

# procedureDetails: NCI Yeast Anticancer Drug Screen. Data for the sgs1 mgt1 strain (AID 161);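 note: 0% = growth of cultures given vehicle only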
# conditionDetails: S. cerevisiae sgs1 mgt1 strain, at 50.0 µM, hits give high values
This is part of a sample that, as a whole, favours compounds with a hit. Of some 79,000 tested, about 15% had one in any assay.
parameter: growth inhibition (%)
Numbers only here, please. The scale is %.

Completed entries (count: 3):
[
  {
    "compound": "CCOC(=O)C1NC(=O)C(C(=O)OCC)C1C(C)C (centres undefined)",
    "growth inhibition (%)": 0.35
  },
  {
    "compound": "CCCCCCCC(=O)N1CCCC(C)C1 (centres undefined)",
    "growth inhibition (%)": 9.3
  },
  {
    "compound": "CN1Cc2ccccc2[C@H]2C(c3ccccc3)=NN(c3ccccc3)[C@H]21",
    "growth inhibition (%)": 59.2
  }
]

Please examine the following record next.
Which growth inhibition value belongs to `Cc1ccc(OC/C=N\N=C(N)N)cc1C` ?
41.3

###

# procedureDetails: NCI Yeast Anticancer Drug Screen. Data for the bub3 strain (AID 167)
# conditionDetails: S. cerevisiae bub3 mutant strain, at 50.0 µM, hits give high values
This is part of a sample that, as a whole, favours compounds with a hit. Of some 79,000 tested, about 15% had one in any assay. Where a SMILES comes first, the peptide text is derived from it. [ ]: non-standard residue; d: D form. The star is where a group is joined. ξ: configuration not given here. Cbz = O=C(OCc1ccccc1)*; ξP = O=C(O)C1CCCN1
parameter: growth inhibition (%)
Numbers only here, please. The scale is %.

Completed entries (count: 4):
[
  {
    "molecule": "CSc1nccc(=O)n1C",
    "scaleUnit": "%",
    "growth inhibition": -21.6
  },
  {
    "molecule": "Cc1cccc(N2CCC(O)C2)c1 (stereo unspecified)",
    "scaleUnit": "%",
    "growth inhibition": -6.9
  },
  {
    "molecule": "O=C(CNC(=O)OCc1ccccc1)NCC(=O)N1CCCC1C(=O)O (stereo not drawn) (Cbz-Gly-Gly-[ξP]-OH)",
    "scaleUnit": "%",
    "growth inhibition": -3.65
  },
  {
    "molecule": "CC1OC1C(=O)C1(O)C(C)C(O)C23OC2(C(O)c2c(O)cccc2C3=O)C1O (stereo unspecified)",
    "scaleUnit": "%",
    "growth inhibition": -0.7
  }
]

Which growth inhibition value belongs to COc1ccc(CC(N)C(=O)OC(C)C)cc1 (stereo unspecified) ?
11

Which growth inhibition value belongs to `O=C(O)c1ccnc(-c2ccc(Cl)cc2)c1` ?
-16.8

Which growth inhibition value belongs to `COC(=O)C[C@H](C)[C@H](C)CC(=O)O` ?
-0.45

Which growth inhibition value belongs to `c1ccnnc1` ?
-0.4

Which growth inhibition value belongs to `Cc1csc2nc(-c3ccncc3)cn12` ?
37.1

Which growth inhibition value belongs to CC1NCCC(CC(=O)O)C1CC(=O)O (stereo unspecified) ?
-26.8

Which growth inhibition value belongs to `CN1C(=O)C(=O)C(c2ccccc2)(c2ccccc2)C1=O` ?
8.75

Which growth inhibition value belongs to `Cc1cccc(N=Cc2ccc(Cl)cc2Cl)c1C` ?
19

Which growth inhibition value belongs to `CCOCC(=O)N[C@H]1CCc2cc(OC)c(OC)c(OC)c2-c2ccc(SC)c(=O)cc21` ?
-8.3

Which growth inhibition value belongs to `NC(=S)NNC(N)=S` ?
-3.2

Which growth inhibition value belongs to `Clc1ccc2c(c1)nnn1nccc21` ?
13.8

Which growth inhibition value belongs to `CC(=O)Nc1ccc(/C=N\NC(=S)Nc2ccc(F)cc2)cc1` ?
4.65

Which growth inhibition value belongs to O=C(OC1CCC2(CC1)N=NC1(CCC(OC(=O)c3ccccc3)CC1)S2)c1ccccc1 (stereo unspecified) ?
-1.1

Which growth inhibition value belongs to `CCCCCCC(=O)/C=C/c1cccc(OCc2cccc(Cl)c2)c1` ?
1.55

Which growth inhibition value belongs to `O=S(=O)(NCCNS(=O)(=O)c1ccccc1)c1ccccc1` ?
1.55

Which growth inhibition value belongs to `Cc1ccc(NC(=O)OCCOc2c(C(C)C)cccc2C(C)C)c([N+](=O)[O-])c1` ?
-7.7

Which growth inhibition value belongs to `Cc1cccc(Cl)c1NC(=O)c1cccc(C(=O)Nc2c(C)cccc2Cl)c1` ?
-2.5

Which growth inhibition value belongs to `O=C(O)CC[C@H](NC(=O)c1ccc(-n2nc3ccc(O)cc3nc2=O)cc1)C(=O)O` ?
33.8

Which growth inhibition value belongs to O=C1c2ccccc2C(=O)c2c(NCCNC(=O)C3CCCN3)ccc(NCCNC(=O)C3CCCN3)c21 (stereo unspecified) ?
-3.7

Which growth inhibition value belongs to `COc1cc(/C=C(\C#N)C(N)=C(C#N)C#N)cc(O)c1O` ?
-24.3

###

# procedureDetails: NCI Yeast Anticancer Drug Screen. Data for the mlh1 rad18 strain (AID 175)
# conditionDetails: S. cerevisiae mlh1 rad18 strain growth inhibition; at 50.0 µM; hits give high values
This is part of a sample that, as a whole, favours compounds with a hit. Of some 79,000 tested, about 15% had one in any assay.
Listing: growth inhibition of selected compounds
Numbers only here, please. The scale is %.

Completed entries (count: 5):
[
  {
    "compound": "CCn1c(C)nc([N+](=O)[O-])c1Sc1ncn[nH]1",
    "growth inhibition (%)": -59.7
  },
  {
    "compound": "COc1ccc(OC)c2cc3c(cc12)C(=O)c1ccccc1C3=O",
    "growth inhibition (%)": 46.9
  },
  {
    "compound": "CCC1(CC)COC2(CCC(C)CC2)OC1",
    "growth inhibition (%)": 7.5
  },
  {
    "compound": "O=C(CSc1nnc(Cc2ccccc2)o1)Nc1ccc([N+](=O)[O-])cc1",
    "growth inhibition (%)": -7.15
  },
  {
    "compound": "C/C(CC(=O)Nc1ccc(Cl)cc1)=N\\NC(=O)C[n+]1ccccc1",
    "growth inhibition (%)": -8.6
  }
]

Please examine the following record next.
Which growth inhibition value belongs to `CCCCCCCCCCCCCCCCS(=O)(=O)N/N=C/c1ccccc1O` ?
20.2
